assay: Human HepG2 cell viability assay in 384 well format
Type: toxicity, cell-based
Set-up: dose 125 nL, time 70.5 hour; concentration not given beside the values
experimental setup: HepG2 cells, read-out: Inhibition
Can you tell me cytotoxicity at 70.5 h for the items I'm about to list?
Report the value in % with no unit label.

Look at this molecule and give its reported cytotoxicity at 70.5 h. "COCC(=O)N1CCc2[nH]nc(-c3ccc4c(c3)OCO4)c2C1"
-3.34

Entry under review: COC(=O)N1CCCC(NC(=O)NCc2nc(C)cs2)C1 (configuration not stated) . Reported cytotoxicity at 70.5 h?
-8.72

Fill in the blank: the reported cytotoxicity at 70.5 h of "c1ncc2c(n1)CN(Cc1nc(-c3ccc4c(c3)OCO4)no1)CC2" is ____.
-4.3

What does the data say about its cytotoxicity at 70.5 h? Entry: "CCCc1nnsc1C(=O)NCC1CCN(c2ncccn2)CC1"
-13.9

State the recorded cytotoxicity at 70.5 h for this entry: "c1cc(-c2cnccn2)cc(-c2ccn(CCN3CCCC3)n2)c1"
12.2

Can you share its cytotoxicity at 70.5 h? I mean this molecule: "CCOc1ccc(NC(=O)Cc2cc(C)[nH]n2)cc1CO"
-7.67

Please report the recorded cytotoxicity at 70.5 h for "CCN(CC)S(=O)(=O)N(CC)Cc1ccc2c(c1)OCCO2" .
-10.6

Any idea what cytotoxicity at 70.5 h was measured for C=C(C)CNC(=O)C1CCCN(C2CCN(C(C)C)CC2)C1 (configuration not stated) ?
-2.47

So what does the record say about cytotoxicity at 70.5 h for CCn1cc(NC(=O)NCC(C)N(C)C)cn1 (configuration not stated) ?
18.2

Name the recorded cytotoxicity at 70.5 h for "CC(C)c1noc(CN(Cc2cccs2)C2CC2)n1" .
6.94

Given the molecule CC1C(=O)Nc2cccnc2N1S(=O)(=O)c1ccc(C#N)c(Cl)c1 (configuration not stated) , what is its reported cytotoxicity at 70.5 h?
-6.2

I would be grateful if you could share the reported cytotoxicity at 70.5 h for "O=C(c1coc(CN2CCN(c3ccccc3F)CC2)n1)N1CCCC1" .
5.68

====

assay: Human HepG2 cell viability assay in 384 well format
Assay type: toxicity, cell-based
Parameters: dose 125 nL, time 70.5 hour; concentration not given beside the values
experimental setup: HepG2 cells, read-out: Inhibition
measurement label: cytotoxicity at 70.5 h (%)
Please respond with the number in % and leave the unit unwritten.

May I ask what cytotoxicity at 70.5 h has been recorded for "Cc1c(-c2ccncc2)n[nH]c1NC(=O)CCOC(C)C" ?
-4.44

Returns the measured cytotoxicity at 70.5 h for the input compound. Input: "Cc1noc(C)c1CN(C)CCC(=O)N1CCc2sccc2C1"
-4.03

Query: cytotoxicity at 70.5 h; subject: "O=C(C1CCC1)N1CCC2(CC1)CNCCO2"
4.67

Given "CCN1CCN(C[C@@H]2CN(Cc3cnc(C(C)C)nc3)C[C@@H]2CO)CC1" , state its recorded cytotoxicity at 70.5 h.
13.2

Could you share which cytotoxicity at 70.5 h value was measured for Cc1cc(CN(C)C(C(=O)O)c2ccc(C(C)(C)C)cc2)on1 (stereo unspecified) ?
-5.92

Field request: cytotoxicity at 70.5 h | item: "CNc1ncc(CN(C)C(=O)[C@@]23CNC[C@@H]2CN(C(=O)C2CC2)C3)cn1"
-7.16

Data request, read-out cytotoxicity at 70.5 h, for "Cn1cc(-c2nc(CN3CCN(c4nccs4)CC3)cs2)cn1"
-5.83

Which measured cytotoxicity at 70.5 h value corresponds to CC(=O)c1ccc(NC(=O)C(NC(=O)Nc2ccccc2)C(C)C)cc1 (stereo unspecified) ?
-10.8

Please report the recorded cytotoxicity at 70.5 h for "O=C1O[C@@H]2CN(S(=O)(=O)N3CCCC3)C[C@@H]2N1CCc1cccc(Cl)c1" .
0.28

Can you look up the measured cytotoxicity at 70.5 h of CC1CN(C)CCN1CC(=O)NCCOc1cccc(F)c1 (stereo unspecified) for me?
-1.27

Consider the compound O=C(C(CNCc1cccnc1)c1ccccc1)N1CCOCC1 (stereo unspecified) and give its measured cytotoxicity at 70.5 h.
-8.37

====

assay: Human HepG2 cell viability assay in 384 well format
Assay type: toxicity, cell-based
Parameters: dose 125 nL, time 70.5 hour; concentration not given beside the values
experimental setup: HepG2 cells, read-out: Inhibition
measurement label: cytotoxicity at 70.5 h

So what does the record say about cytotoxicity at 70.5 h for "CN1CCC(O)(CCNC(=O)[C@@]23CNC[C@@H]2CN(C2CCCC2)C3)CC1" ?
11.4%

Any idea what cytotoxicity at 70.5 h was measured for "CN(C)[C@@H]1CN(C(=O)Cc2cccc(F)c2)[C@@H]2CCCO[C@H]12" ?
-1.9%

Which cytotoxicity at 70.5 h is listed for "Cc1cc(N2CCN(Cc3nccn3C)CC2)cc(C)n1" ?
18.4%

cytotoxicity at 70.5 h for "Fc1ccc(OCCNC2CCN(Cc3ccccn3)CC2)c(F)c1" ?
20.2%

So what's the measured cytotoxicity at 70.5 h for this one? CCOCC1CN(C(=O)c2cscn2)Cc2nnn(CC3CC3)c21 (stereo unspecified)
-6.01%

Name the recorded cytotoxicity at 70.5 h for O=C(c1nccc2ccccc12)N(Cc1ccco1)CC1CCCO1 (stereo unspecified) .
9.69%

====

assay: Human HepG2 cell viability assay in 384 well format
Type: toxicity, cell-based
Set-up: dose 125 nL, time 70.5 hour; concentration not given beside the values
experimental setup: HepG2 cells, read-out: Inhibition
measurement label: cytotoxicity at 70.5 h (%)
Record the value in %, omitting the unit from your answer.

Need cytotoxicity at 70.5 h, item "COc1ccc(CNC(=O)N(Cc2ccc(F)cc2F)C2CC2)cn1"
18.5

Which cytotoxicity at 70.5 h is reported for this compound? "Cc1ccn(-c2ccc(N3CCCN(Cc4ccccc4)CC3)nn2)n1"
2.19

Reported cytotoxicity at 70.5 h, compound "Cc1cnc(CNc2ccccc2CN(C)C(=O)c2cccs2)o1" : ____
18.4

Name the reported cytotoxicity at 70.5 h value associated with the compound c1csc(-c2nc(CN3CCOC(Cn4cccn4)C3)cs2)c1 (stereo unspecified)
-8.48

Please look up its cytotoxicity at 70.5 h: "Cc1nc([C@@H]2C[C@@H]3CCN(C(=O)c4ccsc4)C[C@H]3O2)no1"
-4.84

# lookup: cytotoxicity at 70.5 h of "CC(C)(C)c1ncc(C(=O)NCCNC(=O)c2ccccc2)s1"
1.17

What does the record list as cytotoxicity at 70.5 h for N#Cc1cccc(N2CCCC3(CNCCO3)C2)n1 (stereo unspecified) ?
-8.33

# input compound: "Cc1ccc(S(=O)(=O)NCc2[nH]ncc2Br)cc1F" ; wanted: its cytotoxicity at 70.5 h
-1.86

For the compound shown here, CC(CN1CCCC1=O)NC(=O)Nc1ccccc1Cn1cccn1 (stereo unspecified) , give the reported cytotoxicity at 70.5 h.
-5.84

Data request, read-out cytotoxicity at 70.5 h, for Cc1cn2c(n1)CCC(NC(=O)c1csc(C(C)C)n1)C2 (stereo unspecified)
-0.273

Returns the measured cytotoxicity at 70.5 h for the input compound. Input: "CCNC(=O)NCc1ccc(-n2ccc(C(F)(F)F)n2)cc1"
-3.86

====

For each of the compounds below, state its cytotoxicity at 70.5 h.
assay: Human HepG2 cell viability assay in 384 well format
Assay type: toxicity, cell-based
Design: dose 125 nL, time 70.5 hour; concentration not given beside the values
experimental setup: HepG2 cells, read-out: Inhibition
Record the value in %, omitting the unit from your answer.

Fill in the blank: the reported cytotoxicity at 70.5 h of "O=C(NCCN1CCCCCC1)c1cccc(Cl)c1Cl" is ____.
1.51

So what's the measured cytotoxicity at 70.5 h for this one? Cn1ncc2c1CCCC2NCc1cccc(C(F)(F)F)c1 (stereo unspecified)
-5.81

Please give the measured cytotoxicity at 70.5 h for this compound: COc1cc(CNCC2CN(C3CC3)CCO2)cc(OC)c1 (stereo unspecified)
-2.94

What value of cytotoxicity at 70.5 h has been reported for the following compound? "O=C(NCc1cccnc1)Nc1cc(C(F)(F)F)c[nH]c1=O"
-9.57

What does the data say about its cytotoxicity at 70.5 h? Entry: "Cc1nc(C(=O)N2C[C@@H]3CN(S(C)(=O)=O)CCO[C@@H]3C2)cs1"
-1.34

Find the recorded cytotoxicity at 70.5 h belonging to "COCCCNC(=O)N1CCC(CNC(=O)c2cnn(C)c2)CC1" and report it.
-8.18

====

assay: Human HepG2 cell viability assay in 384 well format
Assay type: toxicity, cell-based
Set-up: dose 125 nL, time 70.5 hour; concentration not given beside the values
experimental setup: HepG2 cells, read-out: Inhibition
measurement label: cytotoxicity at 70.5 h (%)
Numeric only. Scale: %

Which measured cytotoxicity at 70.5 h value corresponds to "CSCC[C@H](NC(C)=O)c1nc(CC(C)C)n[nH]1" ?
7.09

Consider the molecule shown here: "O=C(c1ccc(-n2ccnc2)cc1)N1CCN(c2cnccn2)CC1" What is its recorded cytotoxicity at 70.5 h?
2.67

Bench note: what cytotoxicity at 70.5 h did "CC(=O)N1C[C@H](c2cc(O)nc(C)n2)[C@@H](c2ccccc2F)C1" show?
-2.65

I'd like to know its cytotoxicity at 70.5 h. The molecule in question is Cc1ccc(-c2nc(CN3CCCC3Cn3cncn3)cs2)o1 (stereo unspecified)
-2.7

What value of cytotoxicity at 70.5 h has been recorded for this entry: CCc1ccc(OCC(O)CN2CCN(S(C)(=O)=O)CC2)cc1 (stereo unspecified)
-5.82

Could you share which cytotoxicity at 70.5 h value was measured for "c1c(CN2CCCCC2)nc2n1CCN(CC1CC1)C2" ?
0.696

Given the molecule CS(=O)(=O)N1CC2(CCCN(CC3CC3)C2)Cc2ccccc21 (stereo unspecified) , what is its reported cytotoxicity at 70.5 h?
-3.95

Given the molecule O=C(O)c1cn(CC2CCCN(c3ccc4ccccc4n3)C2)nn1 (stereo unspecified) , what is its reported cytotoxicity at 70.5 h?
-10.4

Form field: reported cytotoxicity at 70.5 h of "Cc1nc2c(C#N)cnn2c(C)c1CCC(=O)N(C)C1CC1"
8.54

Look up cytotoxicity at 70.5 h: "O=C(Nc1cccc(N2CCOCC2)c1)N[C@H](CO)c1ccccc1"
-1.11

# cytotoxicity at 70.5 h lookup, item "COc1cccc(N2CCN(CC[C@H](O)c3ccccc3)CC2=O)c1"
-10.7
